Tested on: OVCAR-8 ovarian
test-description: NCI-60 one-dose screen, 48 h
experimental-setup: 10 µM unless noted
This is part of a sample that, as a whole, favours compounds with a hit. Of some 83,000 tested, about 20% had one in any assay. Calls of active or inactive are those of the source. The calls were made as follows: active = growth percent below 10; inactive = the rest.
Write down the outcome that applies. Available outcomes: active, inactive

Please state the recorded outcome for this compound: C=CC1(C)C(O[Si](C)(C)C(C)(C)C)CC2C3OC(=O)NC31c1cccc3c1[C@H](C(=O)N3C)C2(C)C (stereo not given in full)
inactive

Recorded test outcome, item COc1cccc2c(N=NC(=O)c3ccc(S(N)(=O)=O)cc3)c(O)[nH]c12
inactive

Short answer needed: outcome of this test for Cc1ncc(C(=O)Nc2ccc(CN3CCN(C)CC3)c(C(F)(F)F)c2)cc1C#Cc1cnc(N)c2ccncc12 ?
active

For this compound, state the assay outcome: C=CCn1c(SCC(=O)Nc2ccc(C(=O)/C=C/c3cc(OC)c(OC)c(OC)c3)cc2)nnc1-c1cc(-c2ccc(OC)cc2)nc2ccccc12
inactive

Hi team, can someone confirm the assay call for CCN(CC)CCOc1nc2c3ccc(Cl)cc3nn2c2ccccc12 ?
inactive

---
Would you mind telling me which call this test gave Brc1ccc(-c2cnc3nonc3n2)cc1 ?
inactive

Returns: the outcome recorded for CC1(C)O[C@H]2OC3CCC(=O)CC3(O)[C@H]2O1 (stereo not given in full) in this assay.
inactive

# fetch the recorded call for O=C1CC2C=CCN2C=C1NC(=O)C1CCCCC1 (stereo not given) here
inactive

Could you check what this test reported for Oc1c(I)cc(-c2nc3ccccc3s2)cc1CN(Cc1ccccn1)Cc1ccccn1 ?
inactive

# outcome recorded in this test, key = C=C(C)[C@@H]1CC[C@]2(CO)CC[C@]3(C)[C@H](CC[C@@H]4[C@@]5(C)CCC(NCCc6ccc(O)cc6)C(C)(C)[C@@H]5CC[C@]43C)[C@@H]12 (stereo not given in full)
active

====

System: NCI-H322M lung
test-description: NCI-60 one-dose screen, 48 h
experimental-setup: 10 µM unless noted
Compounds without any hit were thinned out: in the full panel of roughly 83,000, 20% have a hit. Calls of active or inactive are those of the source. Rule for the calls: active = growth percent below 10; inactive = the rest.
Field 'call' accepts active, inactive

# outcome recorded in this test, key = COc1cc(/C=N/Nc2ccccc2F)cc(OC)c1OC
inactive

# lookup: test call for Cn1c(=O)c2c(c3ccccc31)OC(N)=C(C#N)C21C(=O)c2ccccc2C1=O
inactive

// param item: CCCCCCCCn1ccc2cc(NC(=O)Cn3cc(CN4CCC(C)CC4)nn3)ccc21 ; yields the recorded call
inactive

Test call for this compound, please: COc1cccc(C(=O)OCC(O)C(=O)NC23CC4CC(CC(C4)C2)C3)c1 (configuration not stated)
inactive

Could you kindly confirm the outcome this assay logged for Clc1nccc2c(-c3csc(-c4c[nH]c5ccccc45)n3)c[nH]c12 ?
inactive

Would you mind telling me which call this test gave CCN(CC)CCCNCc1cc(-c2ccccc2)nc2cc(Cl)ccc12 ?
inactive

New cases:
What was the test verdict on C[C@@H]1CC[C@@]2(OC1)O[C@H]1C[C@H]3[C@@H]4CC=C5C[C@@H](O[C@@H]6O[C@H](CO)[C@@H](O[C@@H]7O[C@@H](CO)[C@H](O)[C@H]7O)[C@H](O)[C@H]6O[C@@H]6O[C@@H](C)[C@H](O)[C@@H](O)[C@H]6O)CC[C@]5(C)[C@H]4CC[C@]3(C)[C@H]1[C@@H]2C ?
active

Called result for C=CCn1c(SCC(=O)Nc2ccc(C(=O)/C=C/c3ccc(OC)cc3)cc2)nnc1-c1ccccc1
inactive

====

System: SN12C renal
test-description: NCI-60 one-dose screen, 48 h (100 = growth as untreated, 0 = no growth, -100 = all killed)
experimental-setup: 10 µM unless noted
About 83,000 compounds went through this panel and 20% of them were active in at least one assay; those are over-represented in the sample as a whole.
growth less than 50% is y; growth greater than or equal to 50% is n.

Past entries and their recorded results:
# check: growth < 50% for O=C(CN1C(=O)NC2NC(=O)NC21)N/N=C/c1ccc(Cl)cc1Cl (stereo not drawn)
n

Please indicate whether the reported growth of O=C(/C=C/c1ccccc1)Nc1ncc(Cc2ccccc2)s1 is strictly below 50%.
y

State whether 50% exceeds growth recorded for O=C(O)CCCc1cnc2c3sccc3nc(SCc3c(Cl)cccc3Cl)n12 .
n

Attention now shifts to the item below.
# check: growth < 50% for C#CC#CC#CC#CC#CC#CC#CC#CCC1OCC(COC(=O)O[C@@H](C(=O)O[C@H]2C[C@@]3(O)[C@@H](OC(=O)c4ccccc4)[C@@H]4[C@]5(OC(C)=O)CO[C@@H]5C[C@H](O)[C@@]4(C)C(=O)[C@H](OC(C)=O)C(=C2C)C3(C)C)[C@@H](NC(=O)c2ccccc2)c2ccccc2)O1 (stereo partly drawn)
y

====

System: UACC-257 melanoma
test-description: NCI-60 one-dose screen, 48 h (100 = growth as untreated, 0 = no growth, -100 = all killed)
experimental-setup: 10 µM unless noted
About 83,000 compounds went through this panel and 20% of them were active in at least one assay; those are over-represented in the sample as a whole.
measurement-type: growth (%)
Supply the numeric figure in %, leaving out any unit text.

Here are 6 compounds together with their reported answers.
Any idea what growth was measured for COc1cc(C#Cc2ccc(=O)oc2C#Cc2ccccc2)cc(OC)c1OC ?
108

Report growth for Oc1c(I)cc(-c2nc3ccccc3s2)cc1CN(Cc1ccccn1)Cc1ccccn1 please.
0.435

Field request: growth | item: CCc1cccc(Sc2cc(C(=O)N3Cc4ccc(OCCN(C)C)cc4C3)ccc2O)c1
63.3

Tell me the measured growth of CCOC(=O)c1c(NC(=O)c2ccc(OC)cc2)sc2c(CN(C)C)c(O)ccc12 , please.
-58

growth lookup needed for CCN(CC)c1ccc(/C=N/NC(=O)c2ccc(Nc3ccnc(C(F)(F)F)c3)cc2)c(O)c1 , thanks.
49

Which growth is listed for CCN1C(=O)N(CC)C2C1NN=c1s/c(=C\c3cc4ccccc4[nH]3)c(=O)n12 (configuration not stated) ?
45.5

Now for the compound whose growth we want.
So what's the measured growth for this one? O=C(CSc1nc2ccc([N+](=O)[O-])cc2[nH]1)Nc1cccc([N+](=O)[O-])c1
42.7

====

System: MALME-3M melanoma
test-description: NCI-60 one-dose screen, 48 h
experimental-setup: 10 µM unless noted
This is part of a sample that, as a whole, favours compounds with a hit. Of some 83,000 tested, about 20% had one in any assay. Activity calls are given as the source filed them. How the source made its calls: active means growth percent below 10; inactive means the rest.
# output must be one of active, inactive

Study these solved cases before continuing.
State the result this test recorded for Cc1ccccc1CNc1c2ccccc2nc2ccccc12 .
inactive

Status in this test for CCCC(O)Cn1ncc(C(=O)OCC)c1NC(=O)NCc1cccc(F)c1 (centres undefined) ?
inactive

What did the test return for O=C(Cn1nnc2ccccc21)Nc1ccc(-c2nc3ccccc3s2)cc1 ?
inactive

Hi, sorry to bother you, what did the test record for COc1cc(/C=C2\C(=O)N(c3c(Cl)cccc3Cl)c3ccccc32)cc(OC)c1OCCCCCCn1c2ccccc2c(=O)c2ccccc21 ?
inactive

Dear all, I need the recorded test outcome for CC(C)c1ccc(C(=O)Nc2sc3cc(O)ccc3c2C#N)cc1 , thank you.
inactive

Hi, sorry to bother you, what did the test record for COc1ccc2nc3cc(Cl)ccc3c(NCCN)c2c1 ?
active

Would you kindly look at the next entry?
Which outcome was entered for the molecule CCN(CC)CCNC(=O)c1ccc(-c2nc3ccc4[nH]ncc4c3c3c2CCCC3)cc1 in this test?
inactive

====

Tested on: KM12 colon
test-description: NCI-60 one-dose screen, 48 h (100 = growth as untreated, 0 = no growth, -100 = all killed)
experimental-setup: 10 µM unless noted
The panel holds about 83,000 compounds, 20% with a hit somewhere; the sample as a whole holds those more often.
measurement-type: growth (%)
Could you give me the number in %? Just the number is fine.

Look at this compound and give its reported growth. CCCCCCCC/C=C\CCCCCCCCOc1ccccc1CC(=O)NCC[N+]1(C)CCCCC1
22.5

Please report the recorded growth for NNC(=S)N/N=C/c1ccccn1 .
29.2

Given the compound CCN(CC)c1ccc(/C=N\NC(=O)c2cccc(Nc3ccnc(C(F)(F)F)c3)c2)c(O)c1 , what is its reported growth?
23

Requested field: growth. Item: C#CC#CC#CC#CC#CC#CC#CC#CCC1OCC(COC(=O)O[C@@H](C(=O)O[C@H]2C[C@@]3(O)[C@@H](OC(=O)c4ccccc4)[C@@H]4[C@]5(OC(C)=O)CO[C@@H]5C[C@H](O)[C@@]4(C)C(=O)[C@H](OC(C)=O)C(=C2C)C3(C)C)[C@@H](NC(=O)c2ccccc2)c2ccccc2)O1 (stereo partly drawn)
6.73

# growth lookup, item Cn1cc(C(=O)c2nc(-c3c[nH]c4ccc(Br)cc34)no2)c2cc(Br)ccc21
55.2

Consider the compound shown here: COc1cc(-c2cc(-c3ccc(Nc4ncnc5cc(Cl)ccc45)cc3)nc(N3CCN(C)CC3)n2)cc(OC)c1OC What is its recorded growth?
86.1

Record request: growth value, item CCn1cc(CNc2ccc(C(=O)Nc3cc4cc(OC)c(OC)cc4c(C)n3)cc2)c(C)n1
23

# input compound: N#Cc1c(Nc2ccc(F)cc2)n[nH]c1-c1cccs1 ; wanted: its growth
98.1

GET /values?readout=growth&item= C#Cc1cccc(Nc2nc3ccc([N+](=O)[O-])cc3nc2Nc2cccc(C#C)c2)c1
-77.9

What value of measured growth is listed for COP(=O)(OC)c1nnn(-c2cccc([N+](=O)[O-])c2)c1C ?
105

More entries:
Item COc1cccc(C(=O)OCC(O)C(=O)NC23CC4CC(CC(C4)C2)C3)c1 (stereo not drawn) has what recorded growth?
108

Requested read-out: growth. Entry: Cn1cc(-c2csc(-c3cn(C)c4ccc(Br)cc34)n2)c2cnccc21
-87.4

I am curious: what growth value has been reported for O=C1OCC2=C1C(c1cccc(F)c1)c1cc3c(cc1N2CCO)OCO3 (stereo not drawn) ?
25.3
